target: RON (human) (Homo sapiens)
Sequence (Q04912 25-1400): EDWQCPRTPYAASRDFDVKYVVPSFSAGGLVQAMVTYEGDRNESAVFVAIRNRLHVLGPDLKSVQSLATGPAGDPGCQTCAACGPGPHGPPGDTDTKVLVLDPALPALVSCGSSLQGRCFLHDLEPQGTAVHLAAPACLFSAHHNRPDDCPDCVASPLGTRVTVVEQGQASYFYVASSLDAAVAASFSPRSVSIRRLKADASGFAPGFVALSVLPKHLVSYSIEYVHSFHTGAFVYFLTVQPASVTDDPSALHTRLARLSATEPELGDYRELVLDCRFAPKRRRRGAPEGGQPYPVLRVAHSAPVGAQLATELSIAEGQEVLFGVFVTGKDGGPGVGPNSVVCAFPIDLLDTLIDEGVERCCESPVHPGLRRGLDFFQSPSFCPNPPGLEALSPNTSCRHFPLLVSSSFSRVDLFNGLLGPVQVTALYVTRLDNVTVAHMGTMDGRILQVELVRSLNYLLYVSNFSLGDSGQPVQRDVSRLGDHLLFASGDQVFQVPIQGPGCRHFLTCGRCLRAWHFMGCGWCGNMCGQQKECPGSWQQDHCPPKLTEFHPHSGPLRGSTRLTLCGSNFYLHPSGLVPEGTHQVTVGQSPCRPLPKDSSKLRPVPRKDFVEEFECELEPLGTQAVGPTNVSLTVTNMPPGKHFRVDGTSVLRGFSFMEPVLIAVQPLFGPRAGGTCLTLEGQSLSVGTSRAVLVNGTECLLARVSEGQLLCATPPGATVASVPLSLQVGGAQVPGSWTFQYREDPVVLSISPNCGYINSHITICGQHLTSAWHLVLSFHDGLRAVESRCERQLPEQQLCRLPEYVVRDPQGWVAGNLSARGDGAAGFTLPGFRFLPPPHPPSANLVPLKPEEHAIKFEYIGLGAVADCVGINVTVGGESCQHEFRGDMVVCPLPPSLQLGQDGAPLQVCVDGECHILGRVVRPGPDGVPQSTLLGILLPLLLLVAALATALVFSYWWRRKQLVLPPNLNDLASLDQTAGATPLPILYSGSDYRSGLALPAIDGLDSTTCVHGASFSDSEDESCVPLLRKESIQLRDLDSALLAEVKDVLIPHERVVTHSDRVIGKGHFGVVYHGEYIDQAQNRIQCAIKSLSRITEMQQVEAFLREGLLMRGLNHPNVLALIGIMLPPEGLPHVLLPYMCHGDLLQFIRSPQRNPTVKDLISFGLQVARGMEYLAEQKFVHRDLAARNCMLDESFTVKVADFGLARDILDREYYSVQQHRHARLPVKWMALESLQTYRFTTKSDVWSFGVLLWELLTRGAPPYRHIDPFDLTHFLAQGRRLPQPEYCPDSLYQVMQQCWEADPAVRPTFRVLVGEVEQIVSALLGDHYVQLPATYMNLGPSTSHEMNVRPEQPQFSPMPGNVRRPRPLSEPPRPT
Counter-ions that a name gives are not always drawn.
Catalogue of IC50 readings, one per entry.
measuredProperty: IC50

>>> df
                                    compound  readoutvalue
 0  Nc1ncc(-c2cnn(C3CCNCC3)c2)cc1-c1nc2ccccc2o1 [Example 106, dihydrochloride]   0.1 to 1 µM
 1  COCCNC(=O)[C@@H]1C[C@H](n2cc(-c3cnc(N)c(-c4cc5c(Cl)ccc(F)c5cn4)c3)cn2)CN1    1 to 20 µM
 2  Nc1ncc(-c2cnn(C3CCN(CC(F)(F)F)CC3)c2)cc1-c1nc2ccccc2s1 [Example 115, dihydrochloride]    1 to 20 µM
 3  Nc1ncc(-c2cnn(C3CCNCC3)c2)cc1-c1cc2c(Br)cccc2cn1 [Example 22, trihydrochloride salt]    1 to 20 µM
 4  Nc1ncc(-c2cnn(C3CCNCC3)c2)cc1-c1cc2ccc(-c3ccccc3)cc2cn1 [Example 26, tri-hydrochloride salt]   0.1 to 1 µM
 5  Cc1cccc2sc(-c3cc(-c4cnn(C5CCNCC5)c4)cnc3N)nc12   0.1 to 1 µM
 6  Nc1ncc(-c2cnn(C3CCNCC3)c2)cc1-c1nc2c(C(F)(F)F)ccc(Cl)c2s1   0.1 to 1 µM
 7  CS(=O)(=O)Nc1ccc(-c2cnc(N)c(-c3nc4ccccc4s3)c2)cc1    1 to 20 µM
 8  CN1CCN(c2ncc(-c3cnc(N)c(-c4cc5c(Cl)ccc(F)c5cn4)c3)s2)CC1 [Example 60, trihydrochloride]    1 to 20 µM
 9          NCC#Cc1cnc(N)c(-c2nc3ccccc3s2)c1       > 20 µM
10  Nc1ncc(-c2cnn(C3CCNCC3)c2)cc1-c1ncc2ccccc2c1F [Example 8, trihydrochloride]    1 to 20 µM
11  Nc1ncc(-c2cnn(C3CCNCC3)c2)cc1N1CCc2ccccc2C1    1 to 20 µM
12  Nc1ncc(-c2cnn(C3CCNCC3)c2)cc1-c1cc2ccc(O)cc2cn1   0.1 to 1 µM
13  CNC(=O)c1cccc(-c2cnc(N)c(-c3nc4ccccc4s3)c2)c1       > 20 µM
14  Nc1ncc(-c2cnn(C3CCNCC3)c2)cc1-c1nc2ccccc2s1 [Example 107, dihydrochloride]      ≤ 0.1 µM
15  CNC(=O)c1ccc(-c2cnc(N)c(-c3nc4ccccc4s3)c2)cc1    1 to 20 µM
16  Nc1ncc(-c2cnn(C3CCNCC3)c2)cc1-c1cc2ccc(C(F)(F)F)cc2cn1 [Example 17, tri-hydrochloride salt]   0.1 to 1 µM
17  Cn1cc(-c2cnc(N)c(-c3cc4c(Cl)ccc(F)c4cn3)c2)cn1 [Example 65, bis-hydrochloride]    1 to 20 µM
18  Nc1ncc(-c2cnn(C3CCNCC3)c2)cc1-c1cc2c(-c3cn[nH]c3)ccc(F)c2cn1 [Example 51, trihydrochloride]      ≤ 0.1 µM

====

target: RON (human) (Homo sapiens)
pIC50: −log10 of the molar value. Counter-ions that a name gives are not always drawn.
Catalogue of pIC50 readings, one per entry.
measuredProperty: pIC50

In [3]: df
Out[3]:
                                    molecule  measuredproperty  readoutvalue
 0  Nc1ncc(-c2cnn(CC(=O)N3CCC(O)C3)c2)cc1-c1nc2ccccc2s1 (stereo not drawn) [Example 135]             pIC50  4.70 to 6.00
 1  Nc1ncc(-c2cnn(C3CCCCC3)c2)cc1-c1nc2ccccc2s1 [Example 113, bis-hydrochloride]             pIC50  4.70 to 6.00
 2  Nc1ncc(-c2cnn(C3CCNCC3)c2)cc1-c1oc2ccccc2c1-c1cccc(Cl)c1F [Example 97]             pIC50  4.70 to 6.00
 3  COc1cccc2sc(-c3cc(-c4cnn(C5CCNCC5)c4)cnc3N)nc12 [Example 277]             pIC50  6.00 to 7.00
 4  Nc1ncc(-c2cnn(CC(=O)N3CCOCC3)c2)cc1-c1nc2ccccc2s1 [Example 132]             pIC50  4.70 to 6.00
 5  C[C@@H]1CN(C(=O)c2cccc(-c3cnc(N)c(-c4nc5ccccc5s4)c3)c2)C[C@H](C)N1 [Example 208]             pIC50  4.70 to 6.00
 6  CC(C(N)=O)n1cc(-c2cnc(N)c(-c3nc4ccccc4s3)c2)cn1 (stereo not drawn) [Example 145]             pIC50  4.70 to 6.00
 7  Cc1ccc2cnc(-c3cc(-c4cnn(C5CCNCC5)c4)cnc3N)cc2c1 [Example 4, trihydrochloride]             pIC50  4.70 to 6.00
 8  Nc1ncc(-c2cnn(C3CCNCC3)c2)cc1-c1cc2cc(C(F)(F)F)ccc2cn1 [Example 16, trihydrochloride salt]             pIC50  6.00 to 7.00
 9  Nc1ncc(-c2cnn(C3CCNCC3)c2)cc1-c1nc2c(OC(F)(F)F)cccc2s1 [Example 285]             pIC50  4.70 to 6.00
10  Nc1ncc(-c2cccc(C(=O)NCCCN3CCOCC3)c2)cc1-c1nc2ccccc2s1 [Example 225]             pIC50  4.70 to 6.00
11  Nc1ncc(-c2ccco2)cc1-c1cc2c(Cl)ccc(F)c2cn1 [Example 86]             pIC50        < 4.70
12  Nc1ncc(-c2cnn(C3CCNCC3)c2)cc1-c1nc2ccc(OC(F)(F)F)cc2s1 [Example 266]             pIC50  4.70 to 6.00
13  Nc1ncc(-c2cnn(C3CCNCC3)c2)cc1-c1nc2cccc(-c3cn[nH]c3)c2s1 [Example 247, dihydrochloride]             pIC50  6.00 to 7.00
14  Cn1cc(-c2cnc(N)c(-c3nc4ccccc4s3)c2)cn1 [Example 119, bis-hydrochloride]             pIC50  4.70 to 6.00

====

molecular target: UniProt:Q04912
pIC50: −log10 of the molar value. Structures can show the parent of a compound that is named as a salt.
measuredProperty: pIC50

>>> df
                                    compound  readoutvalue
 0  Nc1ncc(-c2cnn(C3CCNCC3)c2)cc1-c1cc2c(F)ccc(F)c2cn1 [Example 10, trihydrochloride]  4.70 to 6.00
 1  COc1ccc(Cl)c2cc(-c3cc(-c4ccc(C(=O)O)cc4)cnc3N)ncc12  6.00 to 7.00
 2  Nc1ncc(-c2ccoc2)cc1-c1cc2c(Cl)ccc(F)c2cn1        < 4.70
 3  CC(=O)N1CCN(C(=O)c2cccc(-c3cnc(N)c(-c4nc5ccccc5s4)c3)c2)CC1        < 4.70
 4  N#Cc1cccc2cc(-c3cc(-c4cnn(C5CCNCC5)c4)cnc3N)ncc12 [Example 36, trihydrochloride salt]  6.00 to 7.00
 5  CN1C2CCC1CC(n1cc(-c3cnc(N)c(-c4nc5ccccc5s4)c3)cn1)C2 (centres unmarked) [Example 108, trihydrochloride]        ≥ 7.00
 6  COc1ccc2cnc(-c3cc(-c4cnn(C5CCNCC5)c4)cnc3N)cc2c1 [Example 45, trihydrochloride]  4.70 to 6.00
 7  CC(C)(C)OC(=O)N1CC=C(c2cnc(N)c(-c3cc4c(Cl)ccc(F)c4cn3)c2)CC1  4.70 to 6.00
 8  Nc1ncc(-c2cnn(C3CCNCC3)c2)cc1-c1cc2c(-c3cccnc3)ccc(F)c2cn1 [Example 54, trihydrochloride]  4.70 to 6.00
 9  Cn1cc(-c2ccc(F)c3cnc(-c4cc(-c5cnn(C6CCNCC6)c5)cnc4N)cc23)cn1 [Example 52, trihydrochloride]        ≥ 7.00
10  Nc1ncc(-c2cnn(CC(=O)N3CCCC3)c2)cc1-c1nc2ccccc2s1  4.70 to 6.00
